Measured on: Xanthine dehydrogenase/oxidase (Bos taurus)
Quantity: IC50 (nM)
Answer format: numeric, nM implied, no suffix.

Exercise: GET /values?readout=IC50&system=Xanthine dehydrogenase/oxidase (Bos taurus)&item= CC(C)COc1ccc(-c2nc(C(=O)O)cs2)cc1[N+](=O)[O-]
Key: 48.6

----------
Measured on: Xanthine dehydrogenase/oxidase (Bos taurus, UniProt P80457)
Sequence (P80457 whole entry): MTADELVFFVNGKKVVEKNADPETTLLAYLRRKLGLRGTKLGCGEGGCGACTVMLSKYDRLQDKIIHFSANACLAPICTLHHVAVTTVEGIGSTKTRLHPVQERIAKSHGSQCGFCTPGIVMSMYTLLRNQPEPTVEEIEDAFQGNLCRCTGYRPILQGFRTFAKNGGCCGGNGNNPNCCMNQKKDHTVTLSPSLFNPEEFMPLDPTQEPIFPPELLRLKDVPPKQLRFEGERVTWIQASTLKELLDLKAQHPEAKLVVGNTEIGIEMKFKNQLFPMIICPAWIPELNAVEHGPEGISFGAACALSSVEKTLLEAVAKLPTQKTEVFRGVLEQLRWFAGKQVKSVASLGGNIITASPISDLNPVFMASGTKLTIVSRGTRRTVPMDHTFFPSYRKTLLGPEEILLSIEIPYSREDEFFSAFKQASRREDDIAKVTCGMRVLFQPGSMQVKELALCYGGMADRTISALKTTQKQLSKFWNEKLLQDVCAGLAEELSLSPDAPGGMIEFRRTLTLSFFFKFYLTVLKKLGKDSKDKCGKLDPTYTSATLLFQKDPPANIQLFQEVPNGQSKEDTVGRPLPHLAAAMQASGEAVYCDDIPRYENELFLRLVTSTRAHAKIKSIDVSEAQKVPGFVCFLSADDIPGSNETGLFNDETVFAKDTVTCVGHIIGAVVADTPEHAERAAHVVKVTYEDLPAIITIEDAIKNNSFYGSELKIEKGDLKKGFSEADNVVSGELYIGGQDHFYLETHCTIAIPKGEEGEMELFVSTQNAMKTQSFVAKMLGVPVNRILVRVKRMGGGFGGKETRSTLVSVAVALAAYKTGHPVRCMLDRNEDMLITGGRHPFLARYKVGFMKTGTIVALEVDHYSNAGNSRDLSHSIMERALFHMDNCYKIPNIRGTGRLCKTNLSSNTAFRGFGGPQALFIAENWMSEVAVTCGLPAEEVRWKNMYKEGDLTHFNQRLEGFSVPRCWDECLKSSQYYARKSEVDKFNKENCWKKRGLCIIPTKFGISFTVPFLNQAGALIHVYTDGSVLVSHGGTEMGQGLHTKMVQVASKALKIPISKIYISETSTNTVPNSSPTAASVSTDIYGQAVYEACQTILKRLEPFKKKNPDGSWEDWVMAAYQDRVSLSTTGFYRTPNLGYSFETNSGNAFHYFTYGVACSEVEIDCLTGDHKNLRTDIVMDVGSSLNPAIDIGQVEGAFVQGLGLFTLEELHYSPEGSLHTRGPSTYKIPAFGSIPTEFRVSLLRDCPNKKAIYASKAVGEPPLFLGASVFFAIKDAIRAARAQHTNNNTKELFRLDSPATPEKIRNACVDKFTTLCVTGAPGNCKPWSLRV
Method description: Inhibition of bovine milk xanthine oxidase at 10 uM using xanthine as substrate preincubated for 3 mins followed by substrate addition and measured at 1 min for 10 mins relative to control
Measurement context: cattle
Entries and their measured inhibition at 10 µM follow.
Lab book: enter the figure in %, no units written.

INSERT INTO measurements (input_smiles, readout_units, number) VALUES
  ('Cc1nc(-c2ccccc2)oc1C(=O)O', '%', 12.5),
  ('Cc1nc(-c2ccccc2)sc1C(=O)O', '%', 37.6),
  ('O=C(O)c1csc(-c2ccccc2)n1', '%', 32.8),
  ('Cc1cc(C(=O)O)nn1-c1ccccc1', '%', 13.9),
  ('O=C(O)c1cc(-c2ccccc2)on1', '%', 4.2),
  ('O=C(O)c1nc(-c2ccccc2)cs1', '%', 18.6);

Exercise: API: value(readout= inhibition at 10 µM, system= Xanthine dehydrogenase/oxidase (Bos taurus, UniProt P80457), query= Cc1nc(-c2ccc(OCC(C)C)c(C#N)c2)sc1C(=O)O )
Key: 98.5
